- Measured On: phospholipase C from human thrombocytes
- Protocol Description: In vitro inhibition of phospholipase C obtained from human thrombocytes
- Measurement Parameters: enzyme from human thrombocytes, phosphatidyl-[14C]-inositol, 37°, 5 minutes, pH 6
pIC50: −log10 of the molar value.
Assay Endpoint: pIC50

* CCN(CC)CCCC(C)Nc1c2ccc(Cl)cc2nc2ccc(OC)cc12 (stereo not shown) | 4.70

* * *

- Measured On: phospholipase A2 from human leucocytes
- Protocol Description: In vitro inhibition of phospholipase A2 obtained from human leucocytes
- Measurement Parameters: enzyme from human neutrophilic polymorphonuclear leucocytes, 14C-oleic acid labelled E. coli phospholipids, 37°, 1 hour, pH 7
Assay Endpoint: IC50 (µM)

* CCN(CC)CCCC(C)Nc1c2ccc(Cl)cc2nc2ccc(OC)cc12 (stereo not shown) | 1600
